Reference for the values: patent US20210388087A1

ELISA signal for assorted binders
Target: T1, human CD137-Fc (human, biotin-labeled)
T1 construct: if 90 already holds the Fc, drop the second piece; also called biotin-labeled human CD137 fused to human IgG1 Fc fragment; biotin-human CD137-Fc; not shown: human IgG1 Fc fragment
T1 sequence (chain, as listed by the source): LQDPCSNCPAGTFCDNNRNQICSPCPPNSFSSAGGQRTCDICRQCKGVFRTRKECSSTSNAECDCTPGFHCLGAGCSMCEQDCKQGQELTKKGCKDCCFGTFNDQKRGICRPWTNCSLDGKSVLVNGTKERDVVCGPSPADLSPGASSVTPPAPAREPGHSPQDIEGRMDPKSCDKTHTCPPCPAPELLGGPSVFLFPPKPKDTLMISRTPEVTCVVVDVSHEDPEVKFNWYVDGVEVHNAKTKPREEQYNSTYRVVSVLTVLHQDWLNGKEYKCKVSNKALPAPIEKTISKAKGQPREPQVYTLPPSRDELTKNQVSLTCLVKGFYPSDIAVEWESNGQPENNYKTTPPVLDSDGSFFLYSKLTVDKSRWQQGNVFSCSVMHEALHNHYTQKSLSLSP
Assay: bead ELISA on biotin-human CD137-Fc, 0 pmol free CD3e peptide
Just the number.

// ELISA signal lookup, key: dBBDu189 (antibody, V domains shown, Human IgG1; light chain GLS3000 (kappa)) VH: QVQLVESGGGLVQPGRSLRLSCAASGFTFSNAWMHWVRQAPGKGLEWIAQIKDRSNQYATYYAPSVKGRFTISRDDSKNSIYLQMNSLKTEDTAVYYCHYVHYAQASSLLPSFGVDAWGQGTTVTVSS VL: DIVMTQSPLSLPVTPGEPASISCRSSQSLVHSNRNTYLHWYQQKPGQAPRLLIYKVSNRFSGVPDRFSGSGSGTDFTLKISRVEAEDVGVYYCGQGTQVPYTFGQGTKLEIK
27400

// ELISA signal lookup, key: DXDU01_3#019 (antibody, V domains shown, Human IgG1; light chain GLS3000 (kappa); also called dBBDu125) VH: QVQLVESGGGLVQPGRSLRLSCAASGFTFSIAWMHWVRQAPGKGLEWVAQIKDKVNGYTAYYAESVKGRFTISRDDSKNSIYLQMNSLKTEDTAVYYCRYVHYAAYYDVLGYGGVDAWGQGTTVTVSS VL: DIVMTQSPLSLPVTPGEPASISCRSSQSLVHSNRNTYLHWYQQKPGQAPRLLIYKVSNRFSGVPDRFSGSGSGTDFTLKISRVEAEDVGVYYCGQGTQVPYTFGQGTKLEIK
61400

// ELISA signal lookup, key: DADU01_3#002 (antibody, V domains shown, Human IgG1; light chain GLS3000 (kappa); also called dBBDu124) VH: QVQLVESGGGLVQPGRSLRLSCAASGFTFSNAWMHWVRQAPGKGLEWVAQIKDKQNLYNAYYAESVKGRFTISRDDSKNSIYLQMNSLKTEDTAVYYCHYVHYASASTVLPAFGVDAWGQGTTVTVSS VL: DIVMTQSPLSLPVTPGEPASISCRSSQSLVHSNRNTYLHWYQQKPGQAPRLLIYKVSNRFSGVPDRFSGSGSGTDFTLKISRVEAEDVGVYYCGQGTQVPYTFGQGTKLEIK
6620
